Every entry's value here was drawn from ChEMBL document CHEMBL3414492.

molecular target: UniProtKB Q06418
Assay Metric: IC50

Entry O=c1ccc(-n2ccc3ccc(F)cc32)nn1CCOc1ccnc2cc(OCCCN3CCOCC3)ccc12 : reported IC50 = ?
> 1 µM

----------
molecular target: Epidermal growth factor receptor (Homo sapiens, UniProt P00533); assay: Inhibition of EGFR (unknown origin)
Sequence (P00533 whole entry): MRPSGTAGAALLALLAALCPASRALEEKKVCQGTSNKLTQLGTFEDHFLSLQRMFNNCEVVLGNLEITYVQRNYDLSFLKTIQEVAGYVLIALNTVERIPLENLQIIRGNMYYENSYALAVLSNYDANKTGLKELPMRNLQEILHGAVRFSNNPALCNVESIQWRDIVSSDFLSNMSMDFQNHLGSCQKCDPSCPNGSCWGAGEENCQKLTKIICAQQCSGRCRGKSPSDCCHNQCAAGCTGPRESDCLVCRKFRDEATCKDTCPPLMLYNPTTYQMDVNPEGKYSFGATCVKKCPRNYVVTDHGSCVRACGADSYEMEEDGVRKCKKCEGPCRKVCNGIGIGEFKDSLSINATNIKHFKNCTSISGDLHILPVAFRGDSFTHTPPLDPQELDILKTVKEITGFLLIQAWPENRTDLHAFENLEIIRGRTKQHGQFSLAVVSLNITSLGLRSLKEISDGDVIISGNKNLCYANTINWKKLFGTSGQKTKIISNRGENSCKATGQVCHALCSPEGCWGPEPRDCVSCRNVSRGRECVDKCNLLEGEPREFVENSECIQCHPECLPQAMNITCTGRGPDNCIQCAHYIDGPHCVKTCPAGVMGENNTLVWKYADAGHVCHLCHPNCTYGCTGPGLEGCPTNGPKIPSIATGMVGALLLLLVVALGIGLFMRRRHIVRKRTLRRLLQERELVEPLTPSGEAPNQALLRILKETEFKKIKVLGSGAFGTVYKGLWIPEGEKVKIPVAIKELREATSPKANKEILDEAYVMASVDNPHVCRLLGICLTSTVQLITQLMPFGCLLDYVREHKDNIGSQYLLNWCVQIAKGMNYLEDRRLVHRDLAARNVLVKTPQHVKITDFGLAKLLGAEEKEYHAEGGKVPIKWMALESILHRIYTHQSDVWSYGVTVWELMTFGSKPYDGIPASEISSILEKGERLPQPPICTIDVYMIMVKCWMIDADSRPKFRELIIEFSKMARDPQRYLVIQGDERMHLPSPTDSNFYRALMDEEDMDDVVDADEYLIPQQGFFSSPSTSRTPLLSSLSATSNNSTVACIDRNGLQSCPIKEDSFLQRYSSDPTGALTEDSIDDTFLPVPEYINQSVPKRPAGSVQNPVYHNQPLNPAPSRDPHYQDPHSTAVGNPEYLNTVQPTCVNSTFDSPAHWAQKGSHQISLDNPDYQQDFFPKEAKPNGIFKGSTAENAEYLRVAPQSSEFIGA
Assay Metric: IC50

I have this compound here, O=c1ccc(-n2ccc3ccc(F)cc32)nn1CCOc1ccnc2cc(OCCCN3CCOCC3)ccc12 , and I need its recorded IC50.
> 1000 nM

----------
system: NCI-H520; test: Inhibition of cell proliferation of human NCI-H520 cells after 72 hrs by SRB assay; assay type: functional, cell-based; settings: NCI-H520, 72 h
pIC50: −log10 of the molar value.
Assay Metric: pIC50

Entry O=c1ccc(-n2ccc3ccc(F)cc32)nn1CCOc1ccnc2cc(OCCCN3CCOCC3)ccc12 : reported pIC50 = ?
< 5.00

----------
molecular target: Vascular endothelial growth factor receptor 1 (Homo sapiens)
Sequence (P17948 whole entry): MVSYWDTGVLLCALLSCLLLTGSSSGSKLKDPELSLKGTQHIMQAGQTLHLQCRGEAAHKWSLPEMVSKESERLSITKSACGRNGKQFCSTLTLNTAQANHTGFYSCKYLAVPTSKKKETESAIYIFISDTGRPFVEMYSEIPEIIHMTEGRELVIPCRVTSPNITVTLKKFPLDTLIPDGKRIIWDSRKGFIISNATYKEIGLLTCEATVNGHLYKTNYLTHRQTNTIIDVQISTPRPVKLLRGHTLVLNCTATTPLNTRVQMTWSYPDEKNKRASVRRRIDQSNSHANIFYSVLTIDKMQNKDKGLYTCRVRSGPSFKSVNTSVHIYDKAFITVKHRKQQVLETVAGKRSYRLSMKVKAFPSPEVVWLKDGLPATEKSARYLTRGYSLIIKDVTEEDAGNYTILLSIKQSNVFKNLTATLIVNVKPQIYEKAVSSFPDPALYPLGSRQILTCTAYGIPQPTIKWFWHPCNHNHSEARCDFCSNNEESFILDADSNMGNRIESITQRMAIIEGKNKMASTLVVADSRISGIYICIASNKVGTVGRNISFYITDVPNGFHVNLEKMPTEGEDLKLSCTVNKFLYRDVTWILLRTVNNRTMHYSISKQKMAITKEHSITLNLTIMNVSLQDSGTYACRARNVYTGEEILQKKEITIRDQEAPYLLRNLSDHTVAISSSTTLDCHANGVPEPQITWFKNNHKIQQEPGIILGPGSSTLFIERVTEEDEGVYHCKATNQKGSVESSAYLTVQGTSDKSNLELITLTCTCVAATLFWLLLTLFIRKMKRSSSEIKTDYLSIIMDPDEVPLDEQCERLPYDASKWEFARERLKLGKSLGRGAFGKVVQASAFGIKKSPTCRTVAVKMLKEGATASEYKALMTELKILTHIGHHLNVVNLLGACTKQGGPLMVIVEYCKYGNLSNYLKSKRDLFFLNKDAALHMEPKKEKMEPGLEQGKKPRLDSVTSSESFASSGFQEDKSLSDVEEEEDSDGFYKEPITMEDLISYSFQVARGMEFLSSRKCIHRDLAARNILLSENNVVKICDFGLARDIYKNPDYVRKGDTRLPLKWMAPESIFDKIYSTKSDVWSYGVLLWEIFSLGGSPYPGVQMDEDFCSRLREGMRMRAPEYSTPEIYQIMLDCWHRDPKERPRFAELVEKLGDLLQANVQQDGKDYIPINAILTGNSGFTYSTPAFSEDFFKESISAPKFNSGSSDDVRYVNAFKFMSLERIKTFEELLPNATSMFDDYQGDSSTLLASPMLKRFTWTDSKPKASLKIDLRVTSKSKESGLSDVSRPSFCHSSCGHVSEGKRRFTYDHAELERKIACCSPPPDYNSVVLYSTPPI
Assay Metric: IC50

Data request, read-out IC50, for O=c1ccc(-n2ccc3ccc(F)cc32)nn1CCOc1ccnc2cc(OCCCN3CCOCC3)ccc12
> 1 µM

----------
biological target: Macrophage-stimulating protein receptor (Homo sapiens, UniProt Q04912)
Assay Metric: IC50

Notebook: pull reported IC50 for Macrophage-stimulating protein receptor (Homo sapiens, UniProt Q04912), entry O=c1ccc(-n2ccc3ccc(F)cc32)nn1CCOc1ccnc2cc(OCCCN3CCOCC3)ccc12
> 1 µM

----------
target: UniProt:P09619
Assay Metric: IC50

What does the data say about its IC50? Entry: O=c1ccc(-n2ccc3ccc(F)cc32)nn1CCOc1ccnc2cc(OCCCN3CCOCC3)ccc12
> 1 µM

----------
target: Hepatocyte growth factor receptor (Homo sapiens); assay: Inhibition of recombinant c-Met (unknown origin) using poly (Glu,Tyr)4:1 substrate incubated for 60 mins by ELISA method
Assay Metric: IC50

Compound Structure String | IC50
O=c1ccc(-n2ccc3ccc(F)cc32)nn1CCOc1ccnc2cc(OCCCN3CCOCC3)ccc12 | 0.0042 µM
Cc1ccccc1Nc1ccc(=O)n(Cc2ccc(NC(=O)OCCCCN(C)C)cc2)n1 | > 10 µM
Cc1ccccc1Nc1ccc(=O)n(Cc2ccccc2NC(=O)OCCCCN(C)C)n1 | > 10 µM

Moving on to the next molecule.
Which IC50 is reported for this molecule? CCOC(=O)Nc1cccc(Cn2nc(-n3ccc4ccc(F)cc43)ccc2=O)c1
> 10 µM

----------
molecular target: Fibroblast growth factor receptor 1 (Homo sapiens, UniProt P11362); test: Inhibition of FGFR1 (unknown origin)
Sequence (P11362 whole entry): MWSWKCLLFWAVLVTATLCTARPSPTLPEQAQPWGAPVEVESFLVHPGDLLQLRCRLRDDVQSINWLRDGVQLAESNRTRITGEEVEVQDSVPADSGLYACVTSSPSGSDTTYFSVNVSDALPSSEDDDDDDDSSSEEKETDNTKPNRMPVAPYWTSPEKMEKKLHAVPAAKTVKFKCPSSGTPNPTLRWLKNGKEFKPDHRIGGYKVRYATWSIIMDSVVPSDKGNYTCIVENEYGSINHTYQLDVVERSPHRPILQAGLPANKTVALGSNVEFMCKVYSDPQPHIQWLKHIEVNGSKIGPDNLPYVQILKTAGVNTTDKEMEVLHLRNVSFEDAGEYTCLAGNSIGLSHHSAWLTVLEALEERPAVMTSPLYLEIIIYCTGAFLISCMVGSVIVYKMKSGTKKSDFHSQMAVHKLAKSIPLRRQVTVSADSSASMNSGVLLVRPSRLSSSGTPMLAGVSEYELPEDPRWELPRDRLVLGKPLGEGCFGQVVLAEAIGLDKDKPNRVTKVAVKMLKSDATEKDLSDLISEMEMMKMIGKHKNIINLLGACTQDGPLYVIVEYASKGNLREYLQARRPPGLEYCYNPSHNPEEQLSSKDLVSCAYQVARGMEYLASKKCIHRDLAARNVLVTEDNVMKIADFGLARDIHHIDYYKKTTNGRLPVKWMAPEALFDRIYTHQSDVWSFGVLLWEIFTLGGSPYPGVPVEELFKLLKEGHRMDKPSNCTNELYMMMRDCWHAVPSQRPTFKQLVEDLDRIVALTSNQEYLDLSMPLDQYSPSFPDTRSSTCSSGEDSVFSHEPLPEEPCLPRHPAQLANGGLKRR
Assay Metric: IC50

Quick check: IC50 of O=c1ccc(-n2ccc3ccc(F)cc32)nn1CCOc1ccnc2cc(OCCCN3CCOCC3)ccc12 ?
> 1000 nM

----------
test system: NCI-H358; assay: Inhibition of cell proliferation of human NCI-H358 cells after 72 hrs by SRB assay; type: functional, cell-based; conditions: NCI-H358, 72 h
pIC50: −log10 of the molar value.
Assay Metric: pIC50

Consider the compound O=c1ccc(-n2ccc3ccc(F)cc32)nn1CCOc1ccnc2cc(OCCCN3CCOCC3)ccc12 and give its measured pIC50.
< 5.00

----------
target: Hepatocyte growth factor receptor (Homo sapiens, UniProt P08581); test: Inhibition of c-Met (unknown origin)
Sequence (P08581 whole entry): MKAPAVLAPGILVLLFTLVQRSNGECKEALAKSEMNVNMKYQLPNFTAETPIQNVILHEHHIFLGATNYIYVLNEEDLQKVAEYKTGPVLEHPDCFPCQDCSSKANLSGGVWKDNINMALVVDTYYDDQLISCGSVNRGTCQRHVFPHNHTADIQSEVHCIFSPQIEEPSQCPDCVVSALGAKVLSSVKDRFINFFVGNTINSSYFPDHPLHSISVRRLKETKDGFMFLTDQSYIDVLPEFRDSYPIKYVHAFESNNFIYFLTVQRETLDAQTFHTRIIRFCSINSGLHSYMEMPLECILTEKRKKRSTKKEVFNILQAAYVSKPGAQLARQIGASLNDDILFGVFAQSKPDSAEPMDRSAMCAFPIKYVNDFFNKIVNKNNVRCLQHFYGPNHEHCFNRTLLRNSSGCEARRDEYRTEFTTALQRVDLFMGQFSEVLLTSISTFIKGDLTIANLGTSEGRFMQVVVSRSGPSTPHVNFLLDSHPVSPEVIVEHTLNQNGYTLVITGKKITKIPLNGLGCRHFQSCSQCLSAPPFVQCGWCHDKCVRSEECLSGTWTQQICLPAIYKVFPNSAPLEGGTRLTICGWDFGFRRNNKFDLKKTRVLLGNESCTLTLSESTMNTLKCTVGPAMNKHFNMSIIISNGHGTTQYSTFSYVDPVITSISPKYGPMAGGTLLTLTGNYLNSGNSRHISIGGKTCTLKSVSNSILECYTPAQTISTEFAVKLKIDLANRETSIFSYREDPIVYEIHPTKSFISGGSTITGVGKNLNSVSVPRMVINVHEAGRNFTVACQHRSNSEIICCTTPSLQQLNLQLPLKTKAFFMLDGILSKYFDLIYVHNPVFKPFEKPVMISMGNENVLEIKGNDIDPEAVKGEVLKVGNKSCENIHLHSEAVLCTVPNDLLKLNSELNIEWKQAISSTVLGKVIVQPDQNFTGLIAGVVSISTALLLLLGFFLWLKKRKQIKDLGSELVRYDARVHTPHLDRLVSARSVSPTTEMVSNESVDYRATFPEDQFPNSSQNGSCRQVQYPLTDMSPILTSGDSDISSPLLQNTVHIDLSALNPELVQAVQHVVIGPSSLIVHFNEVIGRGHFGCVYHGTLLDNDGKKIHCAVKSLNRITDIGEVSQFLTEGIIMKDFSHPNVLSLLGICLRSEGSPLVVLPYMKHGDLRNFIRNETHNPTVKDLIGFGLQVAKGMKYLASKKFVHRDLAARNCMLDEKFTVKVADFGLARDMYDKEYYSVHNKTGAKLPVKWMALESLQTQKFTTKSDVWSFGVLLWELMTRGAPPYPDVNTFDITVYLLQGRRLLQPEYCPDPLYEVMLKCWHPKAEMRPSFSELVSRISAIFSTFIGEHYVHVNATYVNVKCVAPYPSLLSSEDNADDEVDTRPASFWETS
Assay Metric: pIC50
The value called pIC50 is obtained by taking minus log10 of the concentration in mol/L.

Look up pIC50: Nc1ccc(Cn2nc(Nc3ccccc3)ccc2=O)cc1
5.00
